Where do the numbers come from? From PubChem BioAssay AID652010.

# EXPERIMENTAL PROTOCOL: DAX1 (NR0B1) inhibitors on StAR promoter, primary screen, cell-based, luminescence, SF-1 (NR5A1), full-length DAX-1 (AID 652010);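 also: 0% = DAX-1 cells with DMSO and 100% = cells lacking DAX-1 with DMSO; higher inhibition means more luminescence from relief of DAX-1 repression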
# CONDITIONS USED: HEK293T StAR-luciferase reporter, SF-1/DAX-1 repression relief; at 6.8 µM; active compounds read high
About 4,100 (1.1%) of roughly 370,000 compounds were called active. Many of the other results were omitted from the sample, so actives are more common in it than they were.
Entries and their inhibition
API: value field is a number in %; no unit string.

Below are worked cases with known answers.
[[record]]
compound = "Cc1ccccc1Nc1nc(N)nc(CSc2nnc3ccccn23)n1"
unit_of_measurement = "%"
obs_value = 0.79

[[record]]
compound = "Cc1ccccc1Nc1nc(N)nc(COC(=O)CCC(=O)c2ccc(F)cc2)n1"
unit_of_measurement = "%"
obs_value = 1.74


Need inhibition of Cc1ccc(C(=O)N2CCN(C3CCCCC3)CC2)s1 , thanks.
0.45

Fill in the blank: the reported inhibition of O=C(CSc1nnc(-c2ccccn2)n1-c1ccccc1)Nc1ccc2cn[nH]c2c1 is ____.
-1.05

If you can, please state the reported inhibition value of C[C@@H]1COc2cccc(N3CCCC3)c2S(=O)(=O)N1C .
0.84

inhibition for CC(Oc1ccccc1[N+](=O)[O-])C(=O)N/N=C/c1ccoc1 (stereo unspecified) ?
6.45

###

inhibition values, listed per item
# EXPERIMENTAL PROTOCOL: DAX1 (NR0B1) inhibitors on StAR promoter, primary screen, cell-based, luminescence, SF-1 (NR5A1), full-length DAX-1 (AID 652010);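 also: 0% = DAX-1 cells with DMSO and 100% = cells lacking DAX-1 with DMSO; higher inhibition means more luminescence from relief of DAX-1 repression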
# CONDITIONS USED: HEK293T StAR-luciferase reporter, SF-1/DAX-1 repression relief; at 6.8 µM; active compounds read high
About 4,100 (1.1%) of roughly 370,000 compounds were called active. The entries come from a sample that favours actives as a whole.
Number in %, nothing else.

Past entries and their recorded results:
[[record]]
compound = "COc1cc(OC)c(C(=O)N2CCCC2)cc1OC"
obs_value = -0.07

[[record]]
compound = "Fc1cnc(N2CCOCC2)nc1NCc1ccccc1"
obs_value = 0.22

[[record]]
compound = "COc1cc(Cl)ccc1OCc1cc(C(=O)N2CC[C@@H]3CCCC[C@H]3C2)no1"
obs_value = 3.53


What inhibition value was documented for this compound, O=C(c1cc(C2CCCCN2S(=O)(=O)c2ccccc2)on1)N1CCOCC1 (configuration not stated) ?
-1.39

Quick one: inhibition of COc1ccccc1-c1cc(C(=O)N2CCCCC2)no1 ?
9.11

// query inhibition value for entry O=C(c1cc(-c2ccccc2O)on1)N1CCCC1
6.48

Would you mind telling me what inhibition value was observed for COC(=O)c1ccccc1Oc1c(F)c(F)nc(N2CCOCC2)c1F ?
0.02

What value of measured inhibition is listed for COc1cc(OC)c(C(=O)NNC(=O)c2ccccc2-n2cccc2)cc1OC ?
0.07

Consider the compound O=C(Nc1ccc2nc3n(c(=O)c2c1)CCCC3)c1ccc(Cl)nc1 and give its measured inhibition.
-1.19

Give its inhibition value. Item: CN(Cc1ccccc1)C(=O)COC(=O)/C=C/c1ccc2c(c1)OCO2
0.06

State the recorded inhibition for this entry: COc1ccnc(NC(=S)N2CCN(c3ncc(C(F)(F)F)cc3Cl)CC2)c1
-0.4

Please give the measured inhibition for this compound: CC(=O)c1ccc(NC(=O)c2cc(-c3cccs3)on2)cc1
0.84

Param item = COc1ccc(Nc2ncc(F)c(N3CCOCC3)n2)cc1 ; retrieve measured inhibition.
4.78

Need inhibition, item O=C(c1cc(COc2ccc(F)cc2F)on1)N1CCOCC1
1.39

Which inhibition value is on record for Cc1ccc(-n2c(COc3ccccc3)nnc2SCC(=O)Nc2ccc3c(c2)OCCO3)cc1 ?
-2.9

Give the measured inhibition of O=C(c1ccco1)N1CCN(C(=O)c2cc(-c3ccccc3F)no2)CC1 .
0.38

Given CCOC(=O)C1CCCN(C(=O)c2cc(-c3cccs3)oc2C)CC1 (configuration not stated) , state its recorded inhibition.
-0.69
